Below, each entry is listed with its recorded IC50.
- System: hIL-6 mRNA
- protocol_text: Inhibition of hIL-6 mRNA transcription in LPS-stimulated U937 cells
- Format: cell-based
- details: Homo sapiens, U-937; PMA-differentiated U937 cells, 1 h pretreatment, 1 ug/mL LPS stimulation, 3 h; read-out: IL-6 activity (Inhibition of hIL-6 mRNA Transcription)
property: IC50

structure_smiles_string	property	value_observed
CC(=O)Nc1cc(-c2c(C)noc2C)cc2c1n(C)c(=O)n2Cc1ccccc1	IC50	≤ 300 nM
Cc1cnn(C)c1-c1cc([N+](=O)[O-])c2nc(C)n(Cc3ccccc3)c2c1	IC50	300 to 3000 nM
Cc1noc(C)c1-c1cnc2c(Cl)cn(Cc3ccccc3)c2c1	IC50	300 to 3000 nM
Cc1noc(C)c1-c1cc(N(C)C)c2ncn(Cc3ccc(F)cc3)c2c1	IC50	300 to 3000 nM
Cc1noc(C)c1-c1cnc2[nH]c(=O)n(Cc3ccccc3)c2c1	IC50	≤ 300 nM
Cc1noc(C)c1-c1cc(N)c2c(c1)ncn2Cc1ccccc1	IC50	300 to 3000 nM
CNc1cc(-c2c(C)noc2C)cc2c1ncn2Cc1ccc(F)cc1	IC50	300 to 3000 nM
Cc1noc(C)c1Nc1cnc2nc(C)n(Cc3ccccc3)c2c1	IC50	300 to 3000 nM
CCNc1nc2c(NC(C)=O)cc(-c3c(C)noc3C)cc2n1Cc1ccccc1	IC50	≤ 300 nM
